measurement-description: protein stability index of a GFP-peptide fusion (GPS, HEK-293T) (PSI 1-6); higher = more stable;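 note: 24-mer peptide tiles fused after GFP, lentivirally expressed, FACS-sorted into six equal bins by GFP/DsRed ratio, decoded by Illumina sequencing, PSI is the read-weighted mean bin number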
measurement-setup: treatment: MLN4924 1 uM, 8 h; c terminus: a fixed tail appended
quantity-kind: protein stability index
Would you mind answering with just the numeric figure?

Some solved entries appear below for comparison.
> print(dat)
                      entry.sequence  readout.value
1  GQCGENLAWASYDQTGKEVADRWY [GLIPR2]           3.13
2  DISLGQKEDGEPSWREAKVSWFGS [PWWP2B]           3.39

Entry MSADPHLASSLSPSQDERMRSPQN [NOL4L] has what protein stability index?
5.15

Could you tell me which protein stability index is on file for QASCDEAHKMKFSDLFSLAEEYED [INTS3] ?
4.77

What value of protein stability index has been reported for the following sequence? FSDSSMDHFQKFLPTVGGQLGTAG [MYOZ1]
3.23

So what does the record say about protein stability index for ALMRMLDNLGYRTGYPYRYPALRE [ADD1] ?
2.65

# protein stability index lookup, item VALLRAHAGEHLLLGATKRSMVFK [HNF4A]
2.48

Tell me the measured protein stability index of GHVEVARLLLDSGAQVNMPADSFE [ANKRD17] , please.
3.83

# lookup: protein stability index of PWSPCSARFITDFLDNGYGHCLLD [ADAMTS4]
2.21

Record request: protein stability index value, item RNGHLATVKLLVEEKADVLARGPL [RIPK4]
3.44

What does the data say about its protein stability index? Entry: LRAESDFEQLPDDVAISANIADIE [NCF4]
5.21

Requested field: protein stability index. Item: HGNQSAGEDQAFGDWLLTANGSEI [SLC22A15]
4.67

Would you kindly share the measured protein stability index for FNPEVAKYLKVPQDPLKFYKKIYF [IQUB] ?
2.24
